# System: Pyricularia oryzae
# test.name: Fungicidal activity against Magnaporthe oryzae at 250 ppm relative to control
# Format: functional
# label = rule met if Activity < 6% else rule not met

>>> class_assignment("Cc1c(C(Cl)c2ccc(Cl)cc2)no[n+]1[O-] (stereo not given)")
"rule not met"
>>> class_assignment("Cc1c(/C=N/Nc2ccc(Cl)cc2)no[n+]1[O-]")
"rule met"
>>> class_assignment("Cc1c(/C=N/Nc2ccccc2)no[n+]1[O-]")
"rule not met"
>>> class_assignment("[O-][n+]1onc(-c2ccccc2Cl)c1-c1ccccc1Cl")
"rule not met"
>>> class_assignment("Cc1c(Cn2cncn2)no[n+]1[O-]")
"rule met"

IN: In the record for "[O-][n+]1onc(-c2ccc(Cl)cc2)c1-c1ccc(Cl)cc1" , is Activity less than 6%?
OUT: rule not met

IN: In the record for COc1ccc(C(O)c2no[n+]([O-])c2C)cc1 (stereo not given) , is Activity less than 6%?
OUT: rule met

IN: In the record for "Cc1ccc(/N=C/c2no[n+]([O-])c2C)cc1C" , is Activity less than 6%?
OUT: rule not met

IN: In the record for Cc1c(C(O)c2ccc(Cl)cc2)no[n+]1[O-] (stereo not given) , is Activity less than 6%?
OUT: rule met

---

Activity overview
# System: Pyricularia oryzae
# test.name: Fungicidal activity against Magnaporthe oryzae at 250 ppm relative to control
# Assay type: functional
Please state the figure in %; there is no need to write the unit.

>>> number("[O-][n+]1onc(-c2ccccc2F)c1-c1ccccc1F [3,4-DI-(2-FLUOROPHENYL)FUROXAN]")
6

Reported Activity of "[O-][n+]1onc(-c2ccc(C(F)(F)F)cc2)c1-c1ccc(C(F)(F)F)cc1" : 6

Reported Activity of Cc1c(C(c2ccc(Cl)cc2)n2cncn2)no[n+]1[O-] (stereo unspecified) : 16

Reported Activity of "[O-][n+]1onc(-c2ccccc2C(F)(F)F)c1-c1ccccc1C(F)(F)F" : 0

Reported Activity of [O-][n+]1onc(-c2cccnc2Cl)c1-c1cccnc1Cl [3,4-DI-(2-CHLOROPYRIDIN-3-YL)FUROXAN] : 19

Reported Activity of [O-][n+]1onc(-c2ccc3ccccc3c2)c1-c1ccc2ccccc2c1 [3,4-DI(2-NAPHTHYL)FUROXAN] : 60

Reported Activity of [O-][n+]1onc(-c2c(Cl)cccc2Cl)c1-c1c(Cl)cccc1Cl [3,4-DI-(2,6-DICHLOROPHENYL)FUROXAN] : 41

Reported Activity of "Cc1c(/C=N/c2ccc(Cl)cc2)no[n+]1[O-]" : 29

Reported Activity of Cc1ccc(-c2no[n+]([O-])c2-c2ccc(C)s2)s1 [3,4-DI-(5-METHYLTHIOPHEN-2-YL)FUROXAN] : 38

Reported Activity of [O-][n+]1onc(-c2ccc(Cl)cc2Cl)c1-c1ccc(Cl)cc1Cl [3,4-DI-(2,4-DICHLOROPHENYL)FUROXAN] : 38

Reported Activity of "Cc1c(/C=N/c2ccccc2)no[n+]1[O-]" : 7
